system: rat osteosarcoma cells of the UMR line (UMR-106), adenylate cyclase activity; assay: UMR-106 based adenylate cyclase assay (cAMP formation); format: cell-based; details: UMR-106 cells, radiometric cAMP formation; read-out: EC50 (concentration of PTH or variant effective for half-maximal stimulation of adenylate cyclase activity)
# EC50 values compiled below
reported-property: EC50 (nM)

>>> measured_result("[Cys^8 Leu^18 ]hpTH (protein, UniProt P01270 32-115, looked up, variant M8C M18L) Parathyroid hormone: SVSEIQLCHNLGKHLNSLERVEWLRKKLQDVHNFVALGAPLAPRDAGSQRPRKKEDNVLVESHEKSLGEADKADVNVLTKAKSQ")
200
>>> measured_result("[Cys^8 ]hPTH (protein, UniProt P01270 32-115, looked up, variant M8C) Parathyroid hormone: SVSEIQLCHNLGKHLNSMERVEWLRKKLQDVHNFVALGAPLAPRDAGSQRPRKKEDNVLVESHEKSLGEADKADVNVLTKAKSQ")
400
>>> measured_result("[Ala^8 ]hPTH (protein, UniProt P01270 32-115, looked up, variant M8A, Parathyroid hormone) Parathyroid hormone: SVSEIQLAHNLGKHLNSMERVEWLRKKLQDVHNFVALGAPLAPRDAGSQRPRKKEDNVLVESHEKSLGEADKADVNVLTKAKSQ")
1200
>>> measured_result("[Val^8 Leu^18 ]hPTH (protein, UniProt P01270 32-115, looked up, variant M8V M18L, Parathyroid hormone) Parathyroid hormone: SVSEIQLVHNLGKHLNSLERVEWLRKKLQDVHNFVALGAPLAPRDAGSQRPRKKEDNVLVESHEKSLGEADKADVNVLTKAKSQ")
110
